So I've got a bunch of compounds here, and I need their MIC values.
Tested on: Mtb. 8666/2010 (MDR-TB)
assay.comment: microbe, parasite or virus in culture
Assay type: cell-based, Mycobacterium tuberculosis
run.parameters: Mycobacterium tuberculosis, 504 h, read-out: MIC Mtb. 8666/2010 21 d
Enter your answer as a number in µM; do not include the unit.

Write down MIC measured for item "C/C(=N\NC(=O)c1ccncc1)C(=O)Oc1ccccc1"
16

Write down MIC measured for item "C/C(=N\NC(=O)c1ccncc1)C(=O)Oc1cc(Cl)ccc1Oc1ccc(Cl)cc1Cl"
32

Write down MIC measured for item "CC(=O)Nc1ccc(OC(=O)C(C)=NNC(=O)c2ccncc2)cc1"
32

Write down MIC measured for item "C/C(=N\NC(=O)c1ccncc1)C(=O)Oc1ccc(Cl)cc1"
16

Write down MIC measured for item "C/C(=N\NC(=O)c1ccncc1)C(=O)OCCn1c([N+](=O)[O-])cnc1C"
16

Write down MIC measured for item "C/C(=N\NC(=O)c1ccncc1)C(=O)Oc1ccc2ccccc2c1"
32

Write down MIC measured for item "COc1ccc(OC(=O)/C(C)=N/NC(=O)c2ccncc2)cc1"
16
